The values you see were collected from ChEMBL document CHEMBL1124798.

molecular target: Kappa-type opioid receptor (Cavia porcellus) (UniProt P41144); assay: Opioid receptor kappa antagonistic activity was measured by the displacement of ethylketazocine in the guinea pig ileum at a concentration of 100 nM; type: functional, tissue-based
Sequence (P41144 whole entry): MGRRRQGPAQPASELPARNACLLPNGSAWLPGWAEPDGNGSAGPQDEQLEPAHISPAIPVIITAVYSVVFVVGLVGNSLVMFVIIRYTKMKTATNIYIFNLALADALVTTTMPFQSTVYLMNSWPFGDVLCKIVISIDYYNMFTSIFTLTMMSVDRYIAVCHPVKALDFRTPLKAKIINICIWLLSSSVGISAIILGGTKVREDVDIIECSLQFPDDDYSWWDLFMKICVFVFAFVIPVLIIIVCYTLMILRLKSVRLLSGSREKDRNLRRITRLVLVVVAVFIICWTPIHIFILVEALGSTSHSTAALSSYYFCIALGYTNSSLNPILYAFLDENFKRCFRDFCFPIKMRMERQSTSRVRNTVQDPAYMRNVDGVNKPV
Where a SMILES comes first, the peptide text is derived from it. [ ]: non-standard residue; d: D form. The star is where a group is joined. Tyr(Nα,Nα-allyl2) = C=CCN(CC=C)[C@@H](Cc1ccc(O)cc1)C(=O)*; Aib = CC(C)(N)C(=O)O
We label by threshold. Values of IC50 ratio strictly beneath 2 are 1.0. Values of 2 and up are 0.0.

Would you kindly verify if IC50 ratio of CN1CC[C@]23c4c5ccc(O)c4O[C@H]2c2[nH]c4ccccc4c2C[C@@]3(O)[C@H]1C5 is strictly less than 2? 1.0

Decide: IC50 ratio of Oc1ccc2c3c1O[C@H]1c4[nH]c5c(ccc6ccccc65)c4C[C@@]4(O)[C@@H](C2)N(CC2CC2)CC[C@]314 strictly below 2? 1.0

For Oc1ccc2c3c1O[C@H]1c4c(c5ccccc5n4-c4ccccc4)C[C@@]4(O)[C@@H](C2)N(CC2CC2)CC[C@]314 , is the recorded IC50 ratio below the cut-off of 2? 0.0

Strictly below 2: is that where IC50 ratio of CN1CC[C@]23c4c5ccc(O)c4O[C@H]2c2c(c4ccccc4n2C)C[C@@]3(O)[C@H]1C5 sits? 1.0

Please check: IC50 ratio for C=CCN(CC=C)[C@@H](Cc1ccc(O)cc1)C(=O)NC(C)(C)C(=O)NC(C)(C)C(=O)N[C@@H](Cc1ccccc1)C(=O)N[C@@H](CC(C)C)C(=O)O ({Tyr(Nα,Nα-allyl2)}-[Aib][Aib]FL-OH) , strictly under 2 or not? 1.0

Is the reported IC50 ratio for CC(=O)O[C@@]12Cc3c([nH]c4ccccc34)[C@@H]3Oc4c(O)ccc5c4[C@@]31CCN(CC1CC1)[C@@H]2C5 strictly below 2? 1.0

Record Oc1ccc2[nH]c3c(c2c1)C[C@@]1(O)[C@H]2Cc4ccc(O)c5c4[C@@]1(CCN2CC1CC1)[C@H]3O5 : is its IC50 ratio strictly below 2? 0.0
